# Species: Rattus norvegicus
# Assay: Open TG-GATES - Regimen: Single
# Type: toxicity, organism-based, Sprague-Dawley
# Set-up: regimen Single, gender Male, age 6 weeks
# Details: in vivo, po, 0 mg/kg, 6 h, tissue Plasma, route gavage, dose level Control
Reported Property: IP (mg/dL)

>>> df
                                    compound  reported_property  quantitative_result
 0  CSc1ccc2c(c1)N(CCC1CCCCN1C)c1ccccc1S2 (stereo unspecified) [THIORIDAZINE]                 IP                 10.1
 1  COc1ccc(Cc2nccc3cc(OC)c(OC)cc23)cc1OC [PAPAVERINE]                 IP                  8.8
 2  CN(C)CCC=C1c2ccccc2CCc2ccccc21 [AMITRIPTYLINE]                 IP                  9.8
 3    Clc1ccccc1CN1CCc2sccc2C1 [TICLOPIDINE]                 IP                  9.3
 4  NC(=O)N/N=C/c1ccc([N+](=O)[O-])o1 [NITROFURAZONE]                 IP                 10.3
 5  O=C(O)c1cn(C2CC2)c2cc(N3CCNCC3)c(F)cc2c1=O [CIPROFLOXACIN]                 IP                  9.9
 6           CC(=O)Oc1ccccc1C(=O)O [ASPIRIN]                 IP                  9.5
 7          CCc1cc(C(N)=S)ccn1 [ETHIONAMIDE]                 IP                  9.4
 8  O=C(O)c1cc(/N=N/c2ccc(S(=O)(=O)Nc3ccccn3)cc2)ccc1O [SULFASALAZINE]                 IP                  9.4
 9  NC(=O)N1c2ccccc2C=Cc2ccccc21 [CARBAMAZEPINE]                 IP                  9.4
10  Cn1c(=O)c2[nH]cnc2n(C)c1=O.O [THEOPHYLLINE]                 IP                  9.3
